Test system: PROVIDENCIA STUARTII CMX 640
Format: cell-based
recorded_conditions: P. stuartii CMX 640; BHI agar; unit assumed
// MIC lookup, one value per entry

>  <compound>
CC[C@H]1OC(=O)[C@H](C)C(=O)[C@H](C)[C@@H](O[C@@H]2O[C@H](C)C[C@H](N(C)C)[C@H]2O)[C@](C)(OC)C[C@@H](C)C2=NC3CN(CCc4ccc(N)cc4)CC3N3C(=O)O[C@@]1(C)[C@H]3[C@H]2C (some centres unmarked)

>  <measured_on>
PROVIDENCIA STUARTII CMX 640

>  <MIC>
> 100 µg/mL

$$$$
>  <compound>
CC[C@H]1OC(=O)[C@H](C)C(=O)[C@H](C)[C@@H](O[C@@H]2O[C@H](C)C[C@H](N(C)C)[C@H]2O)[C@](C)(OC)C[C@@H](C)C2=NC3CCCCC3N3C(=O)O[C@@]1(C)[C@H]3[C@H]2C (some centres unmarked)

>  <measured_on>
PROVIDENCIA STUARTII CMX 640

>  <MIC>
> 100 µg/mL

$$$$
>  <compound>
CC[C@H]1OC(=O)[C@H](C)C(=O)[C@H](C)[C@@H](O[C@@H]2O[C@H](C)C[C@H](N(C)C)[C@H]2O)[C@](C)(OC)C[C@@H](C)C2=NCC(COC(=O)c3ccc([N+](=O)[O-])cc3)N3C(=O)O[C@@]1(C)[C@H]3[C@H]2C (some centres unmarked)

>  <measured_on>
PROVIDENCIA STUARTII CMX 640

>  <MIC>
> 100 µg/mL

$$$$
>  <compound>
CC[C@H]1OC(=O)[C@H](C)C(=O)[C@H](C)[C@@H](O[C@@H]2O[C@H](C)C[C@H](N(C)C)[C@H]2O)[C@](C)(OC)C[C@@H](C)C2=NC[C@H](COCc3ccc(F)cc3)N3C(=O)O[C@@]1(C)[C@H]3[C@H]2C

>  <measured_on>
PROVIDENCIA STUARTII CMX 640

>  <MIC>
100 µg/mL

$$$$
>  <compound>
CC[C@H]1OC(=O)[C@H](C)C(=O)[C@H](C)[C@@H](O[C@@H]2O[C@H](C)C[C@H](N(C)C)[C@H]2O)[C@](C)(OC)C[C@@H](C)C2=NCC(COC(=O)c3ccccc3)N3C(=O)O[C@@]1(C)[C@H]3[C@H]2C (some centres unmarked)

>  <measured_on>
PROVIDENCIA STUARTII CMX 640

>  <MIC>
> 100 µg/mL

$$$$

Entry under test: CC[C@H]1OC(=O)[C@H](C)C(=O)[C@H](C)[C@@H](O[C@@H]2O[C@H](C)C[C@H](N(C)C)[C@H]2O)[C@](C)(OC)C[C@@H](C)C2=NC3CN(CCc4ccc(NC(C)=O)cc4)CC3N3C(=O)O[C@@]1(C)[C@H]3[C@H]2C (some centres unmarked) . Its MIC was > 100 µg/mL

Entry under test: `CC[C@H]1OC(=O)[C@H](C)C(=O)[C@H](C)[C@@H](O[C@@H]2O[C@H](C)C[C@H](N(C)C)[C@H]2O)[C@](C)(OC)C[C@@H](C)C2=N[C@H](CN(C)Cc3ccccc3)CN3C(=O)O[C@@]1(C)[C@H]3[C@H]2C` . Its MIC was > 100 µg/mL

Entry under test: `CC[C@H]1OC(=O)[C@H](C)C(=O)[C@H](C)[C@@H](O[C@@H]2O[C@H](C)C[C@H](N(C)C)[C@H]2O)[C@](C)(OC)C[C@@H](C)C2=NC[C@@H](C)N3C(=O)O[C@@]1(C)[C@H]3[C@H]2C` . Its MIC was > 100 µg/mL
